property label: log10(Ki) (log10 of the value in nM)
Kindly note that the scale is log10 and the underlying Ki is in nM.

Reported rat mGlu2 receptor (Rattus norvegicus, UniProt P31421) log10(Ki) for item Cc1cc(-c2ccc(C(F)(F)F)cc2)nc(-c2cccc(-c3ccc(S(=O)(=O)NC(C)(C)C)s3)c2)c1 [Example 272] was 1.90

Sample Cc1cc(-c2ccc(C(F)(F)F)cc2)cc(-c2cccc(-c3cc(S(N)(=O)=O)c(F)cc3F)c2)n1 [Example 270] , system: rat mGlu2 receptor (Rattus norvegicus, UniProt P31421). Its log10(Ki) is 0.78

Let me check: FC(F)(F)c1ccc(-c2cc(C(F)(F)F)nc(-c3cccc(-c4cccnc4)c3)n2)cc1 [Example 33] , system rat mGlu2 receptor (Rattus norvegicus, UniProt P31421), measured log10(Ki) is 1.23

Given the compound Nc1ncc(-c2cn(-c3nc(-c4cccc(Cl)c4)cc(C(F)(F)F)n3)cn2)cn1 [Example 187] and test system rat mGlu2 receptor (Rattus norvegicus, UniProt P31421), the measured log10(Ki) is 1.14

Let me check: Cc1cc(-c2ccc(C(F)(F)F)cc2)cc(-c2cccc(-c3cccc(S(=O)(=O)NCC(F)(F)F)c3)n2)n1 [Example 445] , system rat mGlu2 receptor (Rattus norvegicus, UniProt P31421), measured log10(Ki) is 0.48

log10(Ki) of Cc1cc(-c2ccc(C(F)(F)F)cc2)cc(-c2cccc(-c3cnc(N)nc3)n2)n1 [Example 72] , assay on rat mGlu2 receptor (Rattus norvegicus, UniProt P31421), is 1.75

Cc1nc(-c2cn(-c3cc(C(F)(F)F)cc(-c4ccc(C(F)(F)F)cc4)n3)cn2)sc1S(=O)(=O)NC(C)(C)C [Example 292] on rat mGlu2 receptor (Rattus norvegicus, UniProt P31421) gives log10(Ki) = 1.45

// returns log10(Ki) for Cc1cn(-c2cccc(-c3cc(-c4ccc(C(F)(F)F)cc4)cc(C)n3)c2)cn1 [Example 227] with rat mGlu2 receptor (Rattus norvegicus, UniProt P31421); value = 1.53

Result for Cc1cc(-c2ccc(C(F)(F)F)cc2)cc(-c2ccnc(-c3cccc(S(C)(=O)=O)c3)n2)n1 [Example 355] , tested on rat mGlu2 receptor (Rattus norvegicus, UniProt P31421), log10(Ki): 0.00

The reported log10(Ki) value, rat mGlu2 receptor (Rattus norvegicus, UniProt P31421), for Cc1cc(-c2ccc(C(F)(F)F)cc2)cc(-c2cccc(-c3cccc(NS(=O)(=O)NC(=O)OC(C)(C)C)c3)n2)n1 [Example 334] reads 1.04

log10(Ki) for rat mGlu2 receptor (Rattus norvegicus, UniProt P31421) with input Cc1cc(-c2ccc(C(F)(F)F)cc2)cc(-c2cccc(-c3ccc(N)nc3)n2)n1 [Example 71] equals 0.00

GET /values?item= Nc1ccc(-c2cn(-c3nc(-c4ccc(F)c(F)c4)cc(C(F)(F)F)n3)cn2)cn1 [Example 384] &system= rat mGlu2 receptor (Rattus norvegicus, UniProt P31421) returns log10(Ki): 1.51

Item Cc1cc(-c2ccc(C(F)(F)F)cc2)cc(-c2ccnc(-c3ccnc(N)c3)n2)n1 [Example 360] ; assay system rat mGlu2 receptor (Rattus norvegicus, UniProt P31421); log10(Ki) reported as 0.70

Fill in: rat mGlu2 receptor (Rattus norvegicus, UniProt P31421) log10(Ki) for Cc1cc(-c2ccc(C(F)(F)F)cc2)cc(-c2ccnc(-c3cccc(NS(N)(=O)=O)c3)n2)n1 [Example 338] = 0.00

// log10(Ki) (rat mGlu2 receptor (Rattus norvegicus, UniProt P31421)) for FC(F)(F)c1ccc(-c2cc(C(F)(F)F)nc(-c3ccncc3)n2)cc1 [Example 39] = 1.60

log10(Ki) of Cc1cc(-c2ccc(C(F)(F)F)cc2)cc(-c2ccnc(-c3cccc(S(=O)(=O)N4CCOCC4)c3)c2)n1 [Example 346] , assay on rat mGlu2 receptor (Rattus norvegicus, UniProt P31421), is 0.60

For the compound CC(C)(C)NS(=O)(=O)c1cccc(-c2cccc(-c3nc(-c4ccc(C(F)(F)F)cc4)cc(C(F)(F)F)n3)c2)c1 [Example 155] , the measured log10(Ki) on rat mGlu2 receptor (Rattus norvegicus, UniProt P31421) was 0.92

Case Nc1ccc(-c2cccc(-c3cc(C(F)(F)F)cc(-c4ccc(C(F)(F)F)cc4)n3)c2)cn1 [Example 60] , rat mGlu2 receptor (Rattus norvegicus, UniProt P31421), log10(Ki) recorded as 1.51

GET /values?item= NS(=O)(=O)c1cccc(-c2cccc(-c3nc(-c4ccc(F)cc4)cc(C(F)(F)F)n3)c2)c1 [Example 394] &system= rat mGlu2 receptor (Rattus norvegicus, UniProt P31421) returns log10(Ki): 0.48

Query Cc1cc(-c2ccc(C(F)(F)F)cc2)cc(-c2cccc(-c3ccc(N)nc3)c2)n1 [Example 62] on rat mGlu2 receptor (Rattus norvegicus, UniProt P31421); log10(Ki) returned: 0.48

Field log10(Ki) (system: rat mGlu2 receptor (Rattus norvegicus, UniProt P31421)) for entry Cc1cc(-c2ccc(Cl)cc2)nc(-n2cnc(-c3cccc(S(C)(=O)=O)c3)c2)n1 [Example 210] = 1.36
